Values compiled from patent EP0381374A1.

Test system: Canine cardiac myofibrillar Ca⁺⁺-dependent Mg⁺⁺ ATPase
METHOD NOTES: Measurement of myofibrillar Ca++-dependent Mg++-ATPase activity
Type: biochemical
CONDITION DETAILS: Concentration: 3 x 10⁻⁵ molar; shift of the pCa giving 50% of the maximal control ATPase activity; 21°C, pH 7.0
Shift in pCa50 (ΔpCa50): recorded values
Keep the answer to the number alone.

Here are 5 compounds together with their reported answers.
O=C1NN=C(c2ccc3c(c2)C(Sc2ccccc2)C(=O)N3)CS1 (centres unmarked) [Example 11] : 0.21
O=C1NN=C(c2ccc3c(c2)C(C2CCCCC2)C(=O)N3)CS1 (centres unmarked) [Example 12] : 0.49
CC1SC(=O)NN=C1c1ccc2c(c1)C(C)(C)C(=O)N2c1ccccc1 (centres unmarked) [Example 7] : 0.20
CC1SC(=O)NN=C1c1ccc2c(c1)C(C1CCCCC1)C(=O)N2 (centres unmarked) [Example 10] : 0.99
CC1SC(=O)NN=C1c1ccc2c(c1)C(C)(C)C(=O)N2Cc1ccccc1 (centres unmarked) [Example 5] : 0.38

compound CC1SC(=O)NN=C1c1ccc2c(c1)C(c1ccccc1)C(=O)N2 (centres unmarked) [Example 4] , Shift in pCa50 (ΔpCa50) observed: 0.68

compound CCOC(=O)CN1C(=O)C(C)(C)c2cc(C3=NNC(=O)SC3C)ccc21 (centres unmarked) [Example 3] , Shift in pCa50 (ΔpCa50) observed: 0.23

compound CC1SC(=O)NN=C1c1ccc2c(c1)C1(CCCC1)C(=O)N2C(=O)c1ccc(N)cc1.Cl (centres unmarked) [Example 1] , Shift in pCa50 (ΔpCa50) observed: 0.19
